Tested on: 299254-011-R-J1-PDC complex spheroids viability
method_notes: Anticancer human tumor 299254-011-R-J1-PDC patient-derived melanoma cell line growth inhibition [GQUAD]
run_parameters: second compound 0.1 µM; first compound 1 µM; stronger effect = lower value
# reported viability, T/C; entries follow
Response body: numeric value in %, unit text excluded.

Example entries begin here.
>>> readout_number("COc1ncnc(C2CC2)c1-c1ncc2cnn(Cc3ccc(-c4nc(C(F)(F)F)cn4C(C)C)cc3)c2n1 + Cc1cnc(CNC(=O)c2c(=O)c3ccc(N4CCCN(C)CC4)nc3n3c2sc2ccccc23)cn1")
97.8
>>> readout_number("COc1ncnc(C2CC2)c1-c1ncc2cnn(Cc3ccc(-c4nc(C(F)(F)F)cn4C(C)C)cc3)c2n1 + Cc1[nH]c2ccc(F)cc2c1-c1nc2c3cccnc3c3ncccc3c2[nH]1")
104
>>> readout_number("CC(C)(O)C1CCC(Nc2ccc3ncc(-c4cccc(C(F)(F)F)c4)n3n2)CC1 (stereo not given) + Cc1cnc(CNC(=O)c2c(=O)c3ccc(N4CCCN(C)CC4)nc3n3c2sc2ccccc23)cn1")
98.6
>>> readout_number("C=CC(=O)N1CCN(c2nc(=O)n(-c3c(C)ccnc3C(C)C)c3nc(-c4c(O)cccc4F)c(F)cc23)C(C)C1 (stereo not given) + Cc1cnc(CNC(=O)c2c(=O)c3ccc(N4CCCN(C)CC4)nc3n3c2sc2ccccc23)cn1")
57.6

// next entry
Q) // map CC(C)n1c(=O)n(C)c2cnc3cc(F)c(-c4ccc(OCCCN5CCCCC5)nc4)cc3c21 + CN(C)c1ccc(Nc2c3ccc(NC(=O)CCN4CCCC4)cc3nc3cc(NC(=O)CCN4CCCC4)ccc23)cc1 to recorded viability, T/C (system: 299254-011-R-J1-PDC complex spheroids viability)
A) 80.7

----------
Test system: 299254-011-R-J1-PDC complex spheroids viability
method_notes: Anticancer human tumor 299254-011-R-J1-PDC cell line growth inhibition [GQUAD];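 note: spheroids exposed to the agents for seven days before readout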;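 for viability, T/C: percent viability relative to DMSO vehicle control wells = 100%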
run_parameters: second compound 3.16 µM; first compound 0.00999 µM; stronger effect = lower value
property_measured: viability, T/C (%)
Response body: numeric value in %, unit text excluded.

Example entries begin here.
>>> readout_number("CC[C@@]1(O)C(=O)OCc2c1cc1n(c2=O)Cc2cc3c(CN(C)C)c(O)ccc3nc2-1 + Cc1cnc(CNC(=O)c2c(=O)c3ccc(N4CCCN(C)CC4)nc3n3c2sc2ccccc23)cn1")
89.9
>>> readout_number("Cn1ncnc1[C@H]1c2n[nH]c(=O)c3cc(F)cc(c23)N[C@@H]1c1ccc(F)cc1 + Cc1[nH]c2ccc(F)cc2c1-c1nc2c3cccnc3c3ncccc3c2[nH]1")
96.3

// next entry
Q) // map CC[C@@]1(O)C(=O)OCc2c1cc1n(c2=O)Cc2cc3c(CN(C)C)c(O)ccc3nc2-1 + Cc1[nH]c2ccc(F)cc2c1-c1nc2c3cccnc3c3ncccc3c2[nH]1 to recorded viability, T/C (system: 299254-011-R-J1-PDC complex spheroids viability)
A) 95

----------
# reported viability, T/C; entries follow
Test system: 299254-011-R-J1-PDC complex spheroids viability
method_notes: Anticancer human tumor 299254-011-R-J1-PDC cell line growth inhibition [GQUAD];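 note: spheroids exposed to the agents for seven days before readout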;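 for viability, T/C: percent viability relative to DMSO vehicle control wells = 100%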
run_parameters: second compound 0.1 µM; first compound 0.00316 µM; stronger effect = lower value
Response body: numeric value in %, unit text excluded.

Example entries begin here.
>>> readout_number("CC[C@@]1(O)C(=O)OCc2c1cc1n(c2=O)Cc2cc3c(CN(C)C)c(O)ccc3nc2-1 + CN(C)c1ccc(Nc2c3ccc(NC(=O)CCN4CCCC4)cc3nc3cc(NC(=O)CCN4CCCC4)ccc23)cc1")
93.2
>>> readout_number("CC[C@@]1(O)C(=O)OCc2c1cc1n(c2=O)Cc2cc3c(CN(C)C)c(O)ccc3nc2-1 + Cc1[nH]c2ccc(F)cc2c1-c1nc2c3cccnc3c3ncccc3c2[nH]1")
105
>>> readout_number("Cn1ncnc1[C@H]1c2n[nH]c(=O)c3cc(F)cc(c23)N[C@@H]1c1ccc(F)cc1 + Cc1[nH]c2ccc(F)cc2c1-c1nc2c3cccnc3c3ncccc3c2[nH]1")
103

Q) If you can, please state the reported viability, T/C value of CC[C@@]1(O)C(=O)OCc2c1cc1n(c2=O)Cc2cc3c(CN(C)C)c(O)ccc3nc2-1 + Cc1cnc(CNC(=O)c2c(=O)c3ccc(N4CCCN(C)CC4)nc3n3c2sc2ccccc23)cn1 .
A) 116

Q) If you can, please state the reported viability, T/C value of CCc1c2c(nc3ccc(O)cc13)-c1cc3c(c(=O)n1C2)COC(=O)[C@]3(O)CC + Cc1cnc(CNC(=O)c2c(=O)c3ccc(N4CCCN(C)CC4)nc3n3c2sc2ccccc23)cn1 .
A) 107

----------
Tested on: 299254-011-R-J1-PDC complex spheroids viability
method_notes: Anticancer human tumor 299254-011-R-J1-PDC cell line growth inhibition [GQUAD];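 note: spheroids exposed to the agents for seven days before readout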
run_parameters: curve of first compound; second compound 0.1 µM
property_measured: pIC50
In plain terms, pIC50 is the concentration in mol/L turned into minus its base-10 logarithm.

>>> readout_number("CCCS(=O)(=O)Nc1ccc(F)c(C(=O)c2c[nH]c3ncc(-c4ccc(Cl)cc4)cc23)c1F + Cc1cnc(CNC(=O)c2c(=O)c3ccc(N4CCCN(C)CC4)nc3n3c2sc2ccccc23)cn1")
5.05

// next entry
Q) // map CC(C)n1c(=O)n(C)c2cnc3cc(F)c(-c4ccc(OCCCN5CCCCC5)nc4)cc3c21 + CN(C)c1ccc(Nc2c3ccc(NC(=O)CCN4CCCC4)cc3nc3cc(NC(=O)CCN4CCCC4)ccc23)cc1 to recorded pIC50 (system: 299254-011-R-J1-PDC complex spheroids viability)
A) 5.09

----------
# reported viability, T/C; entries follow
System: 299254-011-R-J1-PDC complex spheroids viability
method_notes: Anticancer human tumor 299254-011-R-J1-PDC cell line growth inhibition [GQUAD];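 note: spheroids exposed to the agents for seven days before readout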;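 for viability, T/C: percent viability relative to DMSO vehicle control wells = 100%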
run_parameters: second compound 3.16 µM; first compound 0.1 µM; stronger effect = lower value
Response body: numeric value in %, unit text excluded.

Example entries begin here.
>>> readout_number("COc1ccc([C@@H](O)c2cc(-c3ncnc4cc(N5CCOCC5)ccc34)c(F)cc2Cl)nn1 + CN(C)c1ccc(Nc2c3ccc(NC(=O)CCN4CCCC4)cc3nc3cc(NC(=O)CCN4CCCC4)ccc23)cc1")
126
>>> readout_number("CC1COCCN1c1cc(C2(S(C)(=N)=O)CC2)nc(-c2ccnc3[nH]ccc23)n1 (configuration not stated) + Cc1cnc(CNC(=O)c2c(=O)c3ccc(N4CCCN(C)CC4)nc3n3c2sc2ccccc23)cn1")
72.3
>>> readout_number("COc1cc(C2c3cc4c(cc3C(OC3OC5COC(C)OC5C(O)C3O)C3COC(=O)C23)OCO4)cc(OC)c1O (configuration not stated) + Cc1[nH]c2ccc(F)cc2c1-c1nc2c3cccnc3c3ncccc3c2[nH]1")
84.9

Q) If you can, please state the reported viability, T/C value of O=c1[nH]cc(F)c(=O)[nH]1 + Cc1[nH]c2ccc(F)cc2c1-c1nc2c3cccnc3c3ncccc3c2[nH]1 .
A) 107

Q) If you can, please state the reported viability, T/C value of O=c1[nH]cc(F)c(=O)[nH]1 + CN(C)c1ccc(Nc2c3ccc(NC(=O)CCN4CCCC4)cc3nc3cc(NC(=O)CCN4CCCC4)ccc23)cc1 .
A) 103

Q) If you can, please state the reported viability, T/C value of O=C(NO)c1cnc(N2CCN(S(=O)(=O)c3ccc4ccccc4c3)CC2)nc1 + Cc1[nH]c2ccc(F)cc2c1-c1nc2c3cccnc3c3ncccc3c2[nH]1 .
A) 120

Q) If you can, please state the reported viability, T/C value of Nc1ccn(C2OC(CO)C(O)C2(F)F)c(=O)n1 (configuration not stated) + CN(C)c1ccc(Nc2c3ccc(NC(=O)CCN4CCCC4)cc3nc3cc(NC(=O)CCN4CCCC4)ccc23)cc1 .
A) 98.1

Q) If you can, please state the reported viability, T/C value of CC1COCCN1c1cc(C2(O)CC3CCC(C2)O3)c2cnn(-c3ccn[nH]3)c2n1 (configuration not stated) + Cc1cnc(CNC(=O)c2c(=O)c3ccc(N4CCCN(C)CC4)nc3n3c2sc2ccccc23)cn1 .
A) 22.3

Q) If you can, please state the reported viability, T/C value of CC(C)n1c(=O)n(C)c2cnc3cc(F)c(-c4ccc(OCCCN5CCCCC5)nc4)cc3c21 + Cc1[nH]c2ccc(F)cc2c1-c1nc2c3cccnc3c3ncccc3c2[nH]1 .
A) 107

Q) If you can, please state the reported viability, T/C value of Cc1cccc(N(C)C(=O)C2C(O)CCN2c2nc(C)cc(C(F)(F)F)c2C#N)c1 (configuration not stated) + Cc1cnc(CNC(=O)c2c(=O)c3ccc(N4CCCN(C)CC4)nc3n3c2sc2ccccc23)cn1 .
A) 75.2

Q) If you can, please state the reported viability, T/C value of O=c1[nH]cc(F)c(=O)[nH]1 + Cc1cnc(CNC(=O)c2c(=O)c3ccc(N4CCCN(C)CC4)nc3n3c2sc2ccccc23)cn1 .
A) 76

Q) If you can, please state the reported viability, T/C value of CC(C)(O)C1CCC(Nc2ccc3ncc(-c4cccc(C(F)(F)F)c4)n3n2)CC1 (configuration not stated) + Cc1[nH]c2ccc(F)cc2c1-c1nc2c3cccnc3c3ncccc3c2[nH]1 .
A) 102

Hey, just so you know, these numbers are from PubChem BioAssay AID2060513.
